Data credit: paper PMC9482650

- Target Under Test: HTRA1, Q92743
- Sequence (Q92743 360-477): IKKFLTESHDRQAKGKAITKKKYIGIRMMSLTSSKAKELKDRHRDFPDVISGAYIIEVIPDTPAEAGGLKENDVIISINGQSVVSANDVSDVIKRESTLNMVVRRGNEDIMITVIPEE
- Test Name: holdup assay
- Parameters: key: below the threshold = too weak to quantify, mostly under pKd 3.1 to 4
- Condition Details: plain residues with an end cap or a label only (N-terminal biotin on a linker: ttds)
Assignment: determine reported pKd for the given binders.
Answers are plain numbers.

Sample answers from the record:
RHTTSTETAV [HPV30-E6, P36809] | 3.73
SGSRPSATVV [HPV73-E6, Q82005] | 3.9
NDPAWDETNL [ARHGEF7, Q14155;Q14155-1] | 3.92
PVRVCEETSL [OTULIN, Q96BN8] | 4.04
QRQARSETLV [HPV59-E6, Q81964] | 4.14

For each of the binders below, note its pKd.
1. SSLQSLETSV [ATP2B4, P23634]
2. RLPKIKETTV [FRMPD4, Q14CM0]
3. EMDRRPATVV [PLCB4, Q15147]

1. 3.9
2. 3.64
3. 4.23

response.value for KKYVDAETSL [SLC4A7, Q9Y6M7] (field: pKd) = 3.71
